Biological target: Estrogen receptor (Homo sapiens) (UniProt P03372)
Sequence (P03372 whole entry, looked up): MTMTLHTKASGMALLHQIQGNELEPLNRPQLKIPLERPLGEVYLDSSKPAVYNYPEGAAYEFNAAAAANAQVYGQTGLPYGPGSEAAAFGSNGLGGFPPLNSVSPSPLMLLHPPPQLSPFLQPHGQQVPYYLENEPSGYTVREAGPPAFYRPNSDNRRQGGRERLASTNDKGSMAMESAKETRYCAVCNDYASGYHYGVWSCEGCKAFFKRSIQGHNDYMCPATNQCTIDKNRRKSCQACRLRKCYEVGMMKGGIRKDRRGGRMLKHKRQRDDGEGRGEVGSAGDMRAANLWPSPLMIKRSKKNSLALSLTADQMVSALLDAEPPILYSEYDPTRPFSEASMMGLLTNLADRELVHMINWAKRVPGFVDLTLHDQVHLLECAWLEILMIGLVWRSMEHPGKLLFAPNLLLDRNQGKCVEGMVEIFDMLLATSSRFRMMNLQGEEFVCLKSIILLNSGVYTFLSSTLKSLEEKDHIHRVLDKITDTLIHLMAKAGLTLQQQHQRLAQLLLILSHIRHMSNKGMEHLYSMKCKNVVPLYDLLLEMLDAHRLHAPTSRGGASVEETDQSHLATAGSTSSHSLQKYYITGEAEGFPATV
Assay: qHTS assay to identify small molecule antagonists of the estrogen receptor alpha (ER-alpha) signaling pathway (AID 743069); note: % is set by controls: 0 for no effect and ±100 for the full control effect
Details: HEK293 ER-alpha-UAS-bla, beta-lactamase ratio, antagonist mode; series mostly up to 69.4 µM
From the text: National Center for Advancing Translational Sciences [NCATS] NIH Chemical Genomics Center [NCGC] U.S. Environmental Protection Agency [EPA] National Institutes of Environmental Health Sciences [NIEHS] National Toxicology Program [NTP] U.S. Food and Drug Administration [FDA] Estrogen receptor (ER), a nuclear hormone receptor, plays an important role in development, metabolic homeostasis and reproduction. […]
Inconclusive results are not listed. The source made the active and inactive calls. Calls come from the whole dose curve; as a rule, active = well fitted curve in the direction sought with a large enough effect in the signal ratio in the repeat runs (not every such curve was filed as active); inconclusive = weak or mixed curves, or effect the other way; inactive = no such curve, though single readings can be large or run the other way; the % refers to the signal ratio.
Output constraint: value belongs to True (active), False (inactive)

Reference set, count: 3
CCCOC(C(=O)OC1CCN(C)CC1)(c1ccccc1)c1ccccc1 ... False
CC(C)(C)Cl ... False
CCCCCCCCCCCc1ccccc1 ... False

Kindly consider the entry below.
Look up the recorded call for O=C(OCCc1ccccc1)c1ccccc1 in this test. False

---

assay: A CellTox Green Cytotoxicity Assay to monitor cytotoxicity in HEK293 cells - 0 hour (AID 1224869); conditions: CellTox Green fluorescence; series mostly up to 76.8 µM; note: % is set by controls: 0 for no effect and ±100 for the full control effect; nearly all actives have a fitted effect of over 50% in size
Calls of active or inactive are those of the source. The call rests on the fitted dose curve; in most records, active means well fitted activation curve with a large enough effect in the repeat runs; inconclusive means weak or mixed curves; inactive means flat fitted curve, though single readings scatter.
quantity_measured: cytotoxicity

COCC(C)OC(C)=O (stereo not drawn) ... inactive
CC1=CC[C@H](C(C)C)C=C1 ... inactive
c1cc(CCCc2ccncc2)ccn1 ... inactive
CCC(CC)Nc1ccc(C)c(C)c1 ... inactive
CC(CSC(=O)c1ccccc1)C(=O)N1C[C@@H](Sc2ccccc2)C[C@H]1C(=O)O (stereo partly drawn) ... -0.576% [at 15.8 µM] (inactive)
CCC(Cl)CCC(Cl)C(Cl)CC(Cl)C(Cl)C(Cl)CCl (stereo not drawn) ... inactive
C/C=C/C(=O)CC ... 1.29% [at 15.8 µM] (inactive)
C/C=C(/C(=C/C)c1ccc(OC(C)=O)cc1)c1ccc(OC(C)=O)cc1 ... inactive

Answer with the recorded cytotoxicity of c1ccc(C(O[C@H]2CCCN(CCc3ccc4c(c3)OCO4)C2)c2ccccc2)cc1 only. inactive

Report measured cytotoxicity; entry is OCc1cc(C(O)CNCCCCCCOCCCCc2ccccc2)ccc1O (stereo not drawn) inactive

Tell me measured cytotoxicity for CC(C)(C)Cl please. inactive

Complete the entry with cytotoxicity for O=C(O)CNCC(=O)O -0.535% [at 6.97 µM] (inactive)

Identify measured cytotoxicity associated with Nc1cc(C(=O)O)c(O)c(S(=O)(=O)O)c1 inactive

---

assay: qHTS assay for identifying genotoxic compounds that show differential cytotoxicity against isogenic chicken DT40 cell lines with known DNA damage response pathways - Rad54/Ku70 mutant cell line (AID 743015); settings: DT40 Rad54/Ku70 mutant viability, CellTiter-Glo, 40 h; series mostly up to 66.8 µM; note: nearly all actives have a fitted effect of over 60% in size; note: potency is the fitted concentration of half-maximal effect
Results filed as inconclusive are left out. The source made the active and inactive calls. Calls follow the shape of the dose curve; as a rule, active = well fitted cell-killing curve with a large enough effect in the repeat runs; inconclusive = weak or mixed curves; inactive = no such curve, though single readings can be large or run the other way.
quantity_measured: Potency

Below are worked cases with known answers.
CC1=CC[C@H](C(C)C)C=C1 ... 61.1 µM (active)
OC[C@H]1O[C@@H](OCCc2ccc(O)cc2)[C@H](O)[C@@H](O)[C@@H]1O ... inactive
CCOc1ccc(N=Nc2ccc(/C=C/c3ccc(N=Nc4ccc(OCC)cc4)cc3S(=O)(=O)O)c(S(=O)(=O)O)c2)cc1 ... inactive
CC1=CCCC(C)(C)C12CCC(C)O2 (stereo unspecified) ... 13.7 µM (active)
O=S(=O)(Oc1ccc(Cl)cc1)c1ccccc1 ... 54.5 µM (active)

Determine from records and report Potency for CCN(CC)CCNc1ccc(CNC=O)c2sc3ccc(OC)cc3c(=O)c12 0.969 µM (active)

---

experiment: qHTS assay to identify small molecule antagonists of the estrogen related receptor (ERR) signaling pathway from Tox21 library (AID 1224848); conditions: ERR reporter cell line, luciferase antagonist mode, 18 h; series mostly up to 92.4 µM; note: nearly all actives have a fitted effect of over 50% in size
Inconclusive results are not listed. Calls of active or inactive are those of the source. Calls follow the shape of the dose curve; as a rule, active = well fitted inhibition curve with a large enough effect in the repeat runs; inconclusive = weak or mixed curves; inactive = no such curve, though single readings can be large or run the other way.
Hi there, use one of these labels in your reply, thanks! active, inactive

COc1cc(C(=O)OCCCN2CCCN(CCCOC(=O)c3cc(OC)c(OC)c(OC)c3)CC2)cc(OC)c1OC ... inactive
COc1ccc(C)cc1[N+](=O)[O-] ... inactive
O=S(c1cc(Cl)cc(Cl)c1O)c1cc(Cl)cc(Cl)c1O ... inactive
O=C(NCC1CN(c2ccc(N3CCOCC3=O)cc2)C(=O)O1)c1ccc(Cl)s1 (stereo unspecified) ... active
CCCCCCCC/C=C\CCCCCCCC(=O)OCC ... inactive
CN1C[C@H]2c3ccccc3Oc3ccc(Cl)cc3[C@@H]2C1 ... inactive
CCn1cc(C(=O)O)c(=O)c2cnc(N3CCNCC3)nc21 ... inactive
ClCCOCCOCCCl ... inactive
Cc1c(N)cccc1[N+](=O)[O-] ... inactive
CCCCCCc1ccc(-c2ccc(C#N)cc2)cc1 ... inactive

Consider now this further compound.
Check the results log: what was the call for Cc1cccc(C)c1OCC(=O)N[C@@H](Cc1ccccc1)[C@@H](O)C[C@H](Cc1ccccc1)NC(=O)[C@H](C(C)C)N1CCCNC1=O ? active

---

target: Nuclear receptor subfamily 1 group I member 2 (Homo sapiens) (UniProt O75469); assay: Human pregnane X receptor (PXR) small molecule agonists, qHTS assay (AID 1346982); conditions: PXR-Luc HepG2, CYP3A4 luciferase reporter, 24 h; series mostly up to 92.4 µM; note: nearly all actives have a fitted effect of over 35% in size; note: potency is the fitted concentration of half-maximal effect; for activation: % is set by controls: 0 for no effect and ±100 for the full control effect
Sequence (O75469 whole entry, looked up): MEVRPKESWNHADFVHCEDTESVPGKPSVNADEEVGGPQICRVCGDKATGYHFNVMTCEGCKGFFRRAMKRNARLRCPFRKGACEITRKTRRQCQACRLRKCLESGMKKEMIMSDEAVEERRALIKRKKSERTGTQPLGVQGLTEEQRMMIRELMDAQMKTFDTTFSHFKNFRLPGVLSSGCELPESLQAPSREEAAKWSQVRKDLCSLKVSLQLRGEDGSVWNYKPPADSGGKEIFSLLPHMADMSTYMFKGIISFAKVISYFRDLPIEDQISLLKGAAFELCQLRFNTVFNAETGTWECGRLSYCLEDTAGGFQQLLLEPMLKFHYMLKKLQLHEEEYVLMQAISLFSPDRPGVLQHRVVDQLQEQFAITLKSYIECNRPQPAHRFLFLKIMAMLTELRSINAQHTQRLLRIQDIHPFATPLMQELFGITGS
Records with an inconclusive call do not appear. Activity calls are given as the source filed them. The call rests on the fitted dose curve; in most records, active means well fitted activation curve with a large enough effect in the repeat runs; inconclusive means weak or mixed curves; inactive means no such curve, though single readings can be large or run the other way.
quantity_measured: Potency

Known results for compounds:
COc1ccc(-c2nc3ccc(C4=NNC(=O)CC4C)cc3[nH]2)cc1 (stereo unspecified) ... 13.3 µM (active)
CC1OC(=O)C(C)OC1=O (stereo unspecified) ... inactive
O=C(O)C1(C(=O)O)CCC1.[NH2-].[NH2-].[Pt+2] ... inactive
CC[N+]1(CC)CCC(=C(c2ccccc2)c2ccccc2)C1C (stereo unspecified) ... inactive
CC1(c2ccccc2)OC(C(=O)O)=CC1=O (stereo unspecified) ... inactive

Give reported Potency value for CC(=O)c1ccc2c(c1)N(CCCN(C)C)c1ccccc1S2 inactive

---

target: Progesterone receptor (Homo sapiens) (UniProt P06401); assay: qHTS assay to identify small molecule agonists of the progesterone receptor (PR) signaling pathway (AID 1346784); details: PR-UAS-bla HEK293T, beta-lactamase FRET ratio, 16 h; series mostly up to 92.4 µM; note: % is set by controls: 0 for no effect and ±100 for the full control effect; nearly all actives have a fitted effect of over 30% in size
Sequence (P06401 whole entry, looked up): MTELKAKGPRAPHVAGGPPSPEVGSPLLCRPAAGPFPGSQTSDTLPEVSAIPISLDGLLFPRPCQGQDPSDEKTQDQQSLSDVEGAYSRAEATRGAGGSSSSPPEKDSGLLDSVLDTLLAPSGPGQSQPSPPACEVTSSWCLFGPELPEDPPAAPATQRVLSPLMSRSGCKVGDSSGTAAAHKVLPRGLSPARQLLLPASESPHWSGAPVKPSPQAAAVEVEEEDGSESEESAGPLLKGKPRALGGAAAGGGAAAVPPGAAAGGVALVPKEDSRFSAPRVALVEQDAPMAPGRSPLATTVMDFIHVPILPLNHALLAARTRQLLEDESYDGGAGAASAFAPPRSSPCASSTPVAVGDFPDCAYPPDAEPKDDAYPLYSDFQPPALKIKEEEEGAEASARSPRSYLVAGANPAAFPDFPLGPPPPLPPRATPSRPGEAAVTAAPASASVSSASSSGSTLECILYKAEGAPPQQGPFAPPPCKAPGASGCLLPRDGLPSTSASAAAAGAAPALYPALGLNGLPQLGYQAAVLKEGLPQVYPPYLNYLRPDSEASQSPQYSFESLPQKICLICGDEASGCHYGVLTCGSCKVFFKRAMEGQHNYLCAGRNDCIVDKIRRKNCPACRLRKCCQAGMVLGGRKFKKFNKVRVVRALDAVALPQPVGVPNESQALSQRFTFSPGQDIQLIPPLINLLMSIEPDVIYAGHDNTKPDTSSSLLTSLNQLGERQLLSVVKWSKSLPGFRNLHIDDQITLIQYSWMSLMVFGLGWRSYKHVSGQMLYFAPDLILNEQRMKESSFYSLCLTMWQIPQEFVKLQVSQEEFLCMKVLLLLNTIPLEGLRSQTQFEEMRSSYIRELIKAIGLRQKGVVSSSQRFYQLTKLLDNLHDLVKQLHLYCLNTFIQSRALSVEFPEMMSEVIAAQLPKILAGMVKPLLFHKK
Records with an inconclusive call do not appear. Active and inactive are the calls of the source. The call rests on the fitted dose curve.
quantity_measured: activation

Examples with their reported activation follow.
CC(C)Cc1ccc(C(C)C(=O)OCc2ccccn2)cc1 (stereo unspecified) ... inactive
C/C=C(/C(=C/C)c1ccc(OC(C)=O)cc1)c1ccc(OC(C)=O)cc1 ... inactive
CCc1c(C(=O)NN2CCCCC2)nn(-c2ccc(Cl)cc2Cl)c1-c1ccc(Br)cc1 ... inactive
CCN(CC)CCOC(=O)C(c1ccccc1)C1CCCCC1 (stereo unspecified) ... inactive
CCN(CC)CCNc1ccc(CNC=O)c2sc3ccc(OC)cc3c(=O)c12 ... inactive

Respond only with activation recorded for Cc1ncc(CO)c(C=O)c1O inactive

Please look at this molecule and report its activation: CN(C)c1ccc(CCO)cc1 inactive

Using the record for CCCn1cnc2c1c(=O)n(CCCCC(C)=O)c(=O)n2C , state its measured activation. inactive

Look up and report measured activation for this entry: O=P(O)(OCc1ccccc1)OCc1ccccc1 inactive

Return reported activation. Input molecule: CCCCC(CC)COC(=O)COc1ccc(Cl)cc1Cl (stereo unspecified) inactive

Annotate the molecule Cn1c(=O)cc(Oc2ccc(F)cc2F)c2cnc(NCC(C)(C)O)nc21 with its measured activation. inactive

Item COc1ccnc(CS(=O)c2nc3ccc(OC(F)F)cc3[nH]2)c1OC (stereo unspecified) : provide activation inactive

Kindly indicate its recorded activation. Item: COc1cc2nc(Cl)nc(N)c2cc1OC inactive

Consider the molecule C=C(C)C(=O)OCCO . State its measured activation. inactive

Give activation for CCOC(=O)c1cccnc1 inactive

Please give measured activation of the following entry: C#C[C@]1(O)CC[C@H]2[C@@H]3CCc4cc(OC5CCCC5)ccc4[C@H]3CC[C@@]21C inactive

Determine from records and report activation for CC(C)(CO)[N+](=O)[O-] inactive

Give recorded activation. NC(=O)C(c1ccccc1)(c1ccccc1)[C@@H]1CCN(CCc2ccc3c(c2)CCO3)C1 inactive

---

assay: qHTS assay for small molecule agonists of the p53 signaling pathway (AID 651631); settings: HCT-116 p53RE-bla reporter, beta-lactamase FRET ratio, 16 h; series mostly up to 73.3 µM; note: % is set by controls: 0 for no effect and ±100 for the full control effect; nearly all actives have a fitted effect of over 15% in size
Records with an inconclusive call do not appear. The source made the active and inactive calls. The call rests on the fitted dose curve.
The reply should name one outcome from active, inactive

O=C1OC(CN2CCOCC2)CN1/N=C/c1ccc([N+](=O)[O-])o1 (configuration not stated) ... inactive
O=C(O)c1ccccc1Cl ... inactive
O=S(=O)(Oc1ccc(Cl)cc1)c1ccccc1 ... inactive
OCCNCc1ccccc1 ... inactive
O=C1CCC(=O)O1 ... inactive

Assay result, entry Nc1cccc([N+](=O)[O-])c1 — outcome? inactive

What did this assay record as the result for CN1CCN(C(c2ccccc2)c2ccccc2)CC1 ? inactive

Test call, this molecule: C[C@@H](c1ncncc1F)C(O)(Cn1cncn1)c1ccc(F)cc1F (some centres not stated) inactive
